The reported numbers originate from patent US11547681B2.

# ASSAY_DETAILS: in vitro
# DETAILS: male, CD-1, mouse, 0 min, 1 μM
# Method: Reaction mixture, minus cofactors, was prepared as described below. Test article was added into the reaction mixture at a final concentration of 1 μM. […] Half-lives were calculated using GraphPad software, fitting to a single-phase exponential decay equation. Reaction mixture, minus cofactors, was prepared as described below. […] Half-lives were calculated using GraphPad software, fitting to a single-phase exponential decay equation. […]
PROPERTY: Measured concentration of analyte PEA, 0 min (µM)

[[record]]
compound = "CC/C=C\\C/C=C\\C/C=C\\C/C=C\\C/C=C\\CCCC(=O)OCCNC(=O)CCCCCCCCCCCCCCC"
observed_measurement = 0.048

[[record]]
compound = "CCCCCCCCCCCCCCCC(=O)NCCOC(=O)CCC(=O)OCC(O)CO (stereo not shown)"
observed_measurement = 0.52

[[record]]
compound = "CCCCCCCCCCCCCCCC(=O)NCCOC(=O)CCC(=O)OCC(COC(=O)CCC)OC(=O)CCC (stereo not shown)"
observed_measurement = 0.22

[[record]]
compound = "CCCCC/C=C\\C/C=C\\CCCCCCCC(=O)OCCNC(=O)CCCCCCCCCCCCCCC"
observed_measurement = 0.022

[[record]]
compound = "CCCCCCCCCCCCCCCC(=O)NCCOC(=O)CCC(=O)OCC(COC(=O)CCCCCCC)OC(=O)CCCCCCC (stereo not shown) [Compound I-3, PEA-Succinate-Glycerol-Di-Caprylic]"
observed_measurement = 0.0079

[[record]]
compound = "CCCCCCCCCCCCCCCC(=O)NCCOC(=O)CCC"
observed_measurement = 0.48

[[record]]
compound = "CCCCCCCCCCCCCCCC(=O)NCCOC(=O)CCC(=O)OC[C@H]1O[C@@](CO)(O[C@H]2O[C@H](CO)[C@@H](O)[C@H](O)[C@H]2O)[C@@H](O)[C@@H]1O"
observed_measurement = 0.28


* * *

# ASSAY_DETAILS: in vitro
# DETAILS: male, CD-1, mouse, 20 min, 1 μM
# note: boundary value 0.1 µM maps to -1; Concentration (μM) of analyte PEA, 20 min below it maps to 1

[[record]]
molecule = "CCCCC/C=C\\C/C=C\\CCCCCCCC(=O)OCCNC(=O)CCCCCCCCCCCCCCC [Compound I-6]"
group_label = 1

[[record]]
molecule = "CC/C=C\\C/C=C\\C/C=C\\C/C=C\\C/C=C\\CCCC(=O)OCCNC(=O)CCCCCCCCCCCCCCC [Compound I-5]"
group_label = 1

[[record]]
molecule = "CCCCCCCCCCCCCCCC(=O)NCCOC(=O)CCC(=O)OCC(O)CO (stereo not shown) [Compound I-9]"
group_label = -1

[[record]]
molecule = "CCCCCCCCCCCCCCCC(=O)NCCOC(=O)CCC [Compound I-2]"
group_label = -1

[[record]]
molecule = "CCCCCCCCCCCCCCCC(=O)NCCOC(=O)CCC(=O)OC[C@H]1O[C@@](CO)(O[C@H]2O[C@H](CO)[C@@H](O)[C@H](O)[C@H]2O)[C@@H](O)[C@@H]1O [Compound I-7]"
group_label = -1

[[record]]
molecule = "CCCCCCCCCCCCCCCC(=O)NCCOC(=O)CCC(=O)OCC(COC(=O)CCC)OC(=O)CCC (stereo not shown) [Compound I-11]"
group_label = -1

[[record]]
molecule = "CCCCCCCCCCCCCCCC(=O)NCCOC(=O)CCC(=O)OCC(COC(=O)CCCCCCC)OC(=O)CCCCCCC (stereo not shown) [Compound I-3, PEA-Succinate-Glycerol-Di-Caprylic]"
group_label = 1


* * *

# ASSAY_DETAILS: in vitro
# DETAILS: male, Beagle, dog, 20 min, 1 μM
Think of 0.4 µM as a floor: if Concentration (μM) of analyte PEA, 20 min stands on it or above, it is Condition met; beneath it, Condition not met.

[[record]]
compound = "CCCCCCCCCCCCCCCC(=O)NCCOC(=O)CCC(=O)OCC(O)CO (stereo not shown) [Compound I-9]"
group_label = "Condition met"

[[record]]
compound = "CCCCCCCCCCCCCCCC(=O)NCCOC(=O)CCC(=O)OC[C@H]1O[C@@](CO)(O[C@H]2O[C@H](CO)[C@@H](O)[C@H](O)[C@H]2O)[C@@H](O)[C@@H]1O [Compound I-7]"
group_label = "Condition met"

[[record]]
compound = "CCCCCCCCCCCCCCCC(=O)NCCOC(=O)CCC(=O)OCC(COC(=O)CCCCCCC)OC(=O)CCCCCCC (stereo not shown) [Compound I-3, PEA-Succinate-Glycerol-Di-Caprylic]"
group_label = "Condition not met"

[[record]]
compound = "CC/C=C\\C/C=C\\C/C=C\\C/C=C\\C/C=C\\CCCC(=O)OCCNC(=O)CCCCCCCCCCCCCCC [Compound I-5]"
group_label = "Condition not met"

[[record]]
compound = "CCCCCCCCCCCCCCCC(=O)NCCOC(=O)CCC(=O)OCC(COC(=O)CCC)OC(=O)CCC (stereo not shown) [Compound I-11]"
group_label = "Condition not met"

[[record]]
compound = "CCCCC/C=C\\C/C=C\\CCCCCCCC(=O)OCCNC(=O)CCCCCCCCCCCCCCC [Compound I-6]"
group_label = "Condition not met"

[[record]]
compound = "CCCCCCCCCCCCCCCC(=O)NCCOC(=O)CCC [Compound I-2]"
group_label = "Condition met"


* * *

# ASSAY_DETAILS: in vitro
# DETAILS: male, Sprague-Dawley, rat, s9, 10 min, 1 μM
Classify: met when % Remaining of Initial (n = 1), 10 min is strictly less than 60%; not met when % Remaining of Initial (n = 1), 10 min is not.

[[record]]
compound = "CCCCCCCCCCCCCCCC(=O)NCCOC(=O)CCC(=O)OCC(COC(=O)CCC)OC(=O)CCC (stereo not shown) [Compound I-11]"
group_label = "met"

[[record]]
compound = "CCCCCCCCCCCCCCCC(=O)NCCOC(=O)CCC(=O)OCC(COC(=O)CCCCCCC)OC(=O)CCCCCCC (stereo not shown) [Compound I-3, PEA-Succinate-Glycerol-Di-Caprylic]"
group_label = "met"

[[record]]
compound = "CCCCCCCCCCCCCCCC(=O)NCCOC(=O)CCC(=O)OCC(O)CO (stereo not shown) [Compound I-9]"
group_label = "met"

[[record]]
compound = "CCCCCCCCCCCCCCCC(=O)NCCOC(=O)CCC [Compound I-2]"
group_label = "met"

[[record]]
compound = "CC/C=C\\C/C=C\\C/C=C\\C/C=C\\C/C=C\\CCCC(=O)OCCNC(=O)CCCCCCCCCCCCCCC [Compound I-5]"
group_label = "met"

[[record]]
compound = "CCCCC/C=C\\C/C=C\\CCCCCCCC(=O)OCCNC(=O)CCCCCCCCCCCCCCC [Compound I-6]"
group_label = "not met"


* * *

# ASSAY_DETAILS: in vitro
# DETAILS: male, CD-1, mouse, 30 min, 1 μM
Listing: Concentration (μM) of analyte PEA, 30 min of selected molecules
PROPERTY: Concentration (μM) of analyte PEA, 30 min (µM)

[[record]]
molecule = "CCCCC/C=C\\C/C=C\\CCCCCCCC(=O)OCCNC(=O)CCCCCCCCCCCCCCC"
measurement_unit = "µM"
observed_measurement = 0.15

[[record]]
molecule = "CCCCCCCCCCCCCCCC(=O)NCCOC(=O)CCC(=O)OCC(O)CO (stereo not shown)"
measurement_unit = "µM"
observed_measurement = 0.19

[[record]]
molecule = "CC/C=C\\C/C=C\\C/C=C\\C/C=C\\C/C=C\\CCCC(=O)OCCNC(=O)CCCCCCCCCCCCCCC"
measurement_unit = "µM"
observed_measurement = 0.093

[[record]]
molecule = "CCCCCCCCCCCCCCCC(=O)NCCOC(=O)CCC"
measurement_unit = "µM"
observed_measurement = 0.45


* * *

# ASSAY_DETAILS: Plasma stability (37° C., pH 7.4), mouse
# Format: in vitro ADME, CD-1 mouse
# DETAILS: mouse plasma, test article 1 μM, 37° C., pH 7.4, 120 min
PROPERTY: % Remaining of Initial (n = 1), 120 min

[[record]]
compound = "CCCCCCCCCCCCCCCC(=O)NCCOC(=O)CCC"
property = "% Remaining of Initial (n = 1), 120 min"
observed_measurement = "21%"

[[record]]
compound = "CCCCCCCCCCCCCCCC(=O)NCCOC(=O)CCC(=O)OCC(COC(=O)CCCCCCC)OC(=O)CCCCCCC (stereo not shown) [Compound I-3, PEA-Succinate-Glycerol-Di-Caprylic]"
property = "% Remaining of Initial (n = 1), 120 min"
observed_measurement = "4.7%"

[[record]]
compound = "CCCCC/C=C\\C/C=C\\CCCCCCCC(=O)OCCNC(=O)CCCCCCCCCCCCCCC"
property = "% Remaining of Initial (n = 1), 120 min"
observed_measurement = "23%"

[[record]]
compound = "CCCCCCCCCCCCCCCC(=O)NCCOC(=O)CCC(=O)OC[C@H]1O[C@@](CO)(O[C@H]2O[C@H](CO)[C@@H](O)[C@H](O)[C@H]2O)[C@@H](O)[C@@H]1O"
property = "% Remaining of Initial (n = 1), 120 min"
observed_measurement = "<1.0%"

[[record]]
compound = "CCCCCCCCCCCCCCCC(=O)NCCOC(=O)CCC(=O)OCC(COC(=O)CCC)OC(=O)CCC (stereo not shown)"
property = "% Remaining of Initial (n = 1), 120 min"
observed_measurement = "<1.0%"

[[record]]
compound = "CCCCCCCCCCCCCCCC(=O)NCCOC(=O)CCC(=O)OCC(O)CO (stereo not shown)"
property = "% Remaining of Initial (n = 1), 120 min"
observed_measurement = "<1.0%"

[[record]]
compound = "CC/C=C\\C/C=C\\C/C=C\\C/C=C\\C/C=C\\CCCC(=O)OCCNC(=O)CCCCCCCCCCCCCCC"
property = "% Remaining of Initial (n = 1), 120 min"
observed_measurement = "75%"

